- assay: label from the status in PepcDB records

sequence.code	protein production
MEDPLGRLEWIKFLSAFYDKEDKAENYFNQQVSKVMATENKVSSLKKPKVAFGMVDNGKVYIPAKNSYAAKMVDMAGGDYIFKDLNNKSGYITLEDFYSKSKDADVLIYSSSKEYTPSLKSMLSAAPILKTIKPVKNKKVWCFGKDYYQAIDKTDEIIEDLASIFHPESFKGLEHHHHHH	failed
MFRVLHLADLHLGYRPDLPAPVREEVYRARNRVLQAAVDLALDPRQGISLVLIAGDLFDNHRPEASLVEETIRQLTRLEAAGIQVITVPGNHDEITYNDAVYRREAGRWPGLLVTDPMPAKVATLKVKGDTCHLMAMAYTGGVTRVDGPLKAFPPAEGEGVNLAVFHGSLDWDGGERSLPLDGEALAAAGYDYIALGHIHRGGQRRLGRGLAVYAGMVAGKGFADPGTGSWTIVTLGDGPARVEQVPARVTPWRLVDLDVTAFQEPEELETAVRDALDPGALMQVRLTGSLAFDLDLEGLQARLGHPCPYLELVNETAGWTPEILESIAAEPTIRGLFVRRLQEKLAGSAGPGEAEVIRRAIFRGLLALKGGSR	failed

* * *

- assay: label from the status in PepcDB records
observed.property: protein production

sequence.code	observed.property	reported.measurement
MALPRPTSPHARGSNRTPAIMRLVLGACVPGLLTLTWLYGPGTLLNLAWASLVALACEAAMLALRKRPPGVFLKDGSALVTALLLAVALPPYAPWWLTLVATFFALVFGKHLYGGLGQNPFNPAMLGYVVALVSFPLEMTRWPSPDSALGLPDSLREFLGLATRPDAWAHATALDVLKTDRSLTVDELFAGNPAFGHLGSAGSEWVNLAFLLGGLFLLWRRLFTWHAPLGMLAGLFAMSLLFWNGSGSDSHGSPLFHLFSGATMLGAFFIVTDPVSGATSNRGRLVFGLGVGVLTYVIRAWGGYPDGVAFAVLLMNLAAPTIDYYTRPRTYGHRKAERGFKAGD	protein production	failed
MRKRIFWLLPDLASARRTMDDLLLARIENSHIHFVGRDGADMTGLHEANLFQTSDIVHAAEMGLMVGGGVGIVAGVVVAMFPIVSDSPQWGLVGVLAVLGAVFGAWAASMIGSSAPNSRLRSFEKDIEAGKLLLMVDVPRGRVEEVEALLQKAHPEASFAGLDPAVPAFP	protein production	failed
MVKDKQKAIFSENLNSYIAKSEKTQLEIAKSIGVSPQTFNTWCKGIAIPRMGKVQALADYFNINKSDLIEDKKLNIDTVPIESGYTIPVLGRVAAGYGKEAVEEVIGQIEISPSMAAKGDYFGLLIKGDSMIPTLYDGDTVIVERTDDAESGDLVIALVNGSDATCKRLQKYAEGIALIPQNPVYEPMRFTESEIDTTPVKILGKVVEMRRKFLEHHHHHH	protein production	not failed
MSSAIERKSLDPSEEPVDEVLQIPPSLLTCGGCQQNIGDRYFLKAIDQYWHEDCLSCDLCGCRLGEVGRRLYYKLGRKLCRRDYLRLFGQDGLCASCDKRIRAYEMTMRVKDKVYHLECFKCAACQKHFCVGDRYLLINSDIVCEQDIYEWTKINGMI	protein production	failed
MKKTRRILLGLALIIGLSVGAGCRSTASKSKTANASQSATTRTVTDMAGTKVKIPTKVTRVADLWHANNQVVLLLGGQKKLVATTQMIKQSPWFKTIDPGISRVTAPFAGDDLQTEELLKAKPDVVIAADTAQVKQARKAKIPTINAMYQTFAGLRQSVNLTAQVLGGTAPKIAKAYQKTLTTNLNDVKNRLKDVTFKPKVLHFVNATNLNQVDGTGTIVNEWIKAAGGQNALKQKGNMISVTTETLAKSDPDVIIVGSATTAEARAALKKNAVLSKLTAVKKNRVYGNPQGTFPWDRYSAEEALQVLWAAKKLHPDQFQDLNMVAKTKAFYQQFYHYQLSTAQANRLLNGASSPK	protein production	failed
MGNSQRQSEEIEAMAAIYGEEWCVIDENAKIFCIRVTDFMDDPKWTLCLQVMLPSEYPGTAPPSYQLNAPWLKGQERADLSNSLEEIYVHNMGESILYQWVEKIRDALIQKSQITEP	protein production	not failed

* * *

- assay: label from the status in PepcDB records
observed.property: protein production

sequence.code	reported.measurement
MFDPKLLPATRKILDLPARLLVRVGVSADQVTITGFIIGLLAVPFLAFELYEFALAAILLNRLCDGLDGAVARRTQLTDAGGFLDIVLDFIFYSAVVFGFLLASPEQNAIASGLLLVTFMGTGSTFLAFACIAGKRGIENPEYPNKSLHYMGGLTEGFETILAFVAFCLWPQHFSVLAYIFAAACWLTAITRIVAGYRTLKQPGAKPESTNV	not failed
MKPTLFVLAAGMGSRYGSLKQLDGIGPGGDTIMDYSVYDAIRAGFGRLVFVIRHSFEKEFREKILTKYEGRIPVELVFQELDRLPEGFSCPEGREKPWGTNHAVLMGRDAIREPFAVINADDFYGRNGFEVLARKLMTLEGKQGEYCMVGYRVGNTLSESGGVSRGVCQVDEKHLLTGVVERTGIERTDGTISFRDETGKICTLAEDAPVSMNMWGFTPDYFDYSEELFINFLNAHGQEPKSEFFIPFVVNDLIRSGRASVEVLDTTARWFGVTYSDDRPGVVAKLRELTEAGEYPTKLF	not failed

* * *

- assay: label from the status in PepcDB records

sequence.code	protein production
MWEIYDAMINGIPEDFLVDELVCGTTHSVIRSGNGVGLGPNRPFETRMPMLTQNLLGLPLRVAAGCVKSWNYVEASIGLAAINAYYNNPQVAREHGVIFSDAKRVEDRMNDPFIMSQNEVKGKKVGVVGHFPHLESLLEPICDLSILEWSPEEGDYPLPASEFILPECDYVYITCASVVDKTLPRLLELSRNARRITLVGPGTPLAPVLFEHGLQELSGFMVKDNARAFRIVAGAEKVKIYSAGQKVTIKK	not failed
MKSNDLVDQIMAQVIAKVSEHAPASSAQPSHAQPSYKQRDTAMAEKTCSLTEFVGTAIGDTVGLVIANVDSALLDAMKLEKRYRSIGILGARTGAGPHIMAADEAVKATNTEVVSIELPRDTKGGAGHGSLIIFGGDDVSDVKRAVEVALKELDRTFGDVYANEAGHIELQYSARASHALEKAFGTPLGRSCGVIVGAPASIGVLMADTAVKSANVDVVAYSSPAQGTSFSNEVILVISGDSGAVRQAVISAREIGKTVLATLGAEPKNDRPSYI	failed
MSRNEVLLNGDINFKEVRCVGDNGEVYGIISSKEALHIAQNLGLDLVLISASAKPPVCKVMDYNKFRYQNEKKIKEAKKKQKQIEIKEIKLSTQIAQNDINYKVKHAREFIESNKHVKFKVVLKGRESQNSKAGLDVLFRVQTMMQDLANPEKEPKTEGRFVSWMFVPKAKEAPKNEKKTKENNPPFNRINLMKGENHAKNED	failed
MTQHYLRSAAYRDFSIHSIYGMSDDDIHAMFARLRWSSDSHQACPACGAWAQHYRRPARQQWRCKECGRDFSVTSATAFSSRKKSLRSILLATFYYVTGVKGLAGLGLSRMGDYSNKAAHVALGKLREAIFRTQDFTPLTGVVEIDGGYFGGKPRKPNRRGLRNDQAIVDRIAGRPAKRPWHASGMTRTNWEKRKNKRVVMIFRQQGRPGEGAVRSIAAVARSENDKDAAKLIARYVSSEAIIMTDESPAYATVSATHTHYAVRHSHEYVSAEGVNENQAESFFSRLRRWEYGVSHGVRPAYLADYANEMAWREDVRRFSIRTQVEMLLIKALTVGHSRWWRGYYQGKRRGTEILMNQGIPPSSASGASAQ	failed
MSDHKAVHSVQAKAEGKTLVMERSFEAPRELVFKAFSGSVHLESWWGPKGWQTANSRFEFQPDGVWLYCMECRDQNQGEFYGRKSCGKAVFQEIAAPEKIVYTDMFTDEEGNVVPGMPEILNEVYFQERDVGTKLITRSHFSSPKELQQLLDKGMVEGFSSQLERLEDYLKAIR	failed
MTGAETGSHFRRHALDAKPIGMSDHEQTKLIATAMNEGSPQAKALGFTTLEIGDAVALLKVPYRPEIIGDPETGVIAGGVVTTLLDHASGQAVHAAMETWTSIATLDLRIDYMRAAEPGLDVMARAHCYKLTRSVAFVRAVAYDRDPEDPIATGQATFMLDSSAGKKAGANLKPSRQQRSKTGGVDQ	failed
MLELNAKTTALVVIDLQEGILPFAGGPHTADEVVNRAGKLAAKFRASGQPVFLVRVGWSADYAEALKQPVDAPSPAKVLPENWWQHPAALGATDSDIEIIKRQWGAFYGTDLELQLRRRGIDTIVLCGISTNIGVESTARNAWELGFNLVIAEDACSAASAEQHNNSINHIYPRIARVRSVEEILNAL	not failed
MAGLLSGLPMTSALVMLFLSLEQGAVFASMAVPGALAGLAAIQATYLFYFLVTRRVSAVAGCVLALALYGATAFLMNLSGSLALSILFTLLMVALIIVATSKQTPPAAAPYVALPRWVIPMRMLTATLLLLAITASATWLGPVVSGLLAPIPVIAWPLAVFVHVQGGRYELAAIIRGNAIGAVGVLSFYLTLRYSLLQWGALLSITTAVLLAVVVTAVLARLLAKR	failed
MQDILFDFISTYISLTEDEKNALLSLDLFRSVPKGTILLKEGQKSQESYFVLKGCIRIYYIIDGEEKTTAFYTEMDALTPPCVIHNAPSEYFISCIEDSILTVSNLEMEAEINSKFPKFELMCRMLSEELLAKQQIDFDAFKTSSPEQRYLNVLQNRPDLIQRVPQHQLASFLGIKPQSLSRLRARIVDKKS	not failed
MTLRAARPEFLDLFPAGAEARRLADGFTWTEGPVYVPARSAVIFSDVRQNRTWAWSDDGQLSPEMHPSHHQNGHCLNKQGHLIACSHGLRRLERQREPGGEWESIADSFEGKKLNSPNDVCLAPDGSLWFSDPTYGIDKPEEGYGGEMELPGRWVFRLAPDGTLSAPIRDRVKPNGLAFLPSGNLLVSDTGDNATHRYCLNARGETEYQGVHFTVEPGKTDGLRVDAGGLIWASAGDGVHVLTPDGDELGRVLTPQTTSNLCFGGPEGRTLYMTVSTEFWSIETNVRG	failed
MKFFGEIAERAGVPSVMGEILAGILFGALFLDVETGIITFFAQLGSIFLLFTAGYKEVSLRDLRPAVLVAFIPTLTQLVFAFAFGFMLGKIFNFTFLQSLFMAVALSPTAIGVVIRILIDLNYLSSRPGLVMLSSAVLDDIIAISLLSLIVTFARFNRAPSALAVLTISGKILLFLLIMYILGKYFFPRLFVHAQKMHAKEAVFSLVVMTALFSSYLAELFELHATIGAFIGGMLISEIPLAKIPDVQSKVEGLAYGILIPLFFAFIGYSIDLYALVKAGIFVPVVTLLALSGKLIGGFIGSKAIGFNFCESLAFGAGVMPRAGIELVMLTIGRGIGIIGEEIFSAMVFMVIVSILISPSALKFAIQAERKNKTGNELKVG	failed
